Assay: Cytotoxicity activity against CHO cells assessed as cell viability after 2 hrs by WST1 test
Type: cell-based, Cricetulus griseus
Conditions: chinese hamster, read-out: Activity

[
  {
    "compound": "C=C[C@@H]1C2=CCOC(=O)C2=CO[C@H]1O[C@@H]1O[C@H](CO)[C@@H](O)[C@H](O)[C@H]1O [GENTIOPICROSIDE]",
    "viability at 2 h, %": 95
  }
]
